- target.or.test.system: Pyruvate kinase PKM (Homo sapiens, UniProt P14618)
- Sequence (P14618 whole entry): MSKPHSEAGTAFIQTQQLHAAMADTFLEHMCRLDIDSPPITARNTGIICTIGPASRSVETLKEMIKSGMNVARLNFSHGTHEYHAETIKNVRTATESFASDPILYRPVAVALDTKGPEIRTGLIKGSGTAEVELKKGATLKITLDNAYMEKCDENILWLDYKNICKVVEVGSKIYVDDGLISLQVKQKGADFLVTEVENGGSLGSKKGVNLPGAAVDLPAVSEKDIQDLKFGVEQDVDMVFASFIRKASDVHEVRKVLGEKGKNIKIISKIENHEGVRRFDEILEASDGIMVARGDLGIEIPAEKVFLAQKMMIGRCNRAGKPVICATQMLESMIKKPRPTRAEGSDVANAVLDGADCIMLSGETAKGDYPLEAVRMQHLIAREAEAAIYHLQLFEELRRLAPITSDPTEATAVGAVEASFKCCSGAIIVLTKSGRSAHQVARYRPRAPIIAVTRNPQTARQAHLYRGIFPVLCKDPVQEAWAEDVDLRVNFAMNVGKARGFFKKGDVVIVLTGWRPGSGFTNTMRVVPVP
- experimental.protocol: Inhibition of recombinant human N-terminal His-tagged PKM2 expressed in Escherichia coli preincubated for 25 mins in presence of PEP/FBP followed by ADP/NADH addition measured after 25 mins by PK-LDH assay
metric.name: IC50 (nM)
Give bare numbers, in nM.

If you can, please state the reported IC50 value of O=C1C(CSC(=S)N2CCCCC2)=C(CSC(=S)N2CCCCC2)C(=O)c2ccccc21 .
880

* * *

- target.or.test.system: Pyruvate kinase PKLR (Homo sapiens, UniProt P30613)
- Sequence (P30613 whole entry): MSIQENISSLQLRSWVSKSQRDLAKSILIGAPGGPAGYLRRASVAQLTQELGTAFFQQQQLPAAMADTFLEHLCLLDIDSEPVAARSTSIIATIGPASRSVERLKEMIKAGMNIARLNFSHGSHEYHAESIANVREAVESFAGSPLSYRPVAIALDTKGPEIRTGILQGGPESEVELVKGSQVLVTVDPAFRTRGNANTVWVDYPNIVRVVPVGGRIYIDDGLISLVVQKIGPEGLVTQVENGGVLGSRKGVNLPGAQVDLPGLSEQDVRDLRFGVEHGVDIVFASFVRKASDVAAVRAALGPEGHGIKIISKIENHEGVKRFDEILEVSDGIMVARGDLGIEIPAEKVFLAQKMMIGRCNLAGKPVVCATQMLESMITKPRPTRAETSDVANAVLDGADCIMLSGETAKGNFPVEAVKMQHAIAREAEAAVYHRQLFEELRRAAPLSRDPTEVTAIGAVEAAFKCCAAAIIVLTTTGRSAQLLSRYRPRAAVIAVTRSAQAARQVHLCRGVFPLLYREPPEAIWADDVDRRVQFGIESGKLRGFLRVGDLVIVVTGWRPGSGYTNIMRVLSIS
- experimental.protocol: Inhibition of recombinant human N-terminal His-tagged PKL expressed in Escherichia coli preincubated for 25 mins in presence of PEP/FBP followed by ADP/NADH addition measured after 25 mins by PK-LDH assay
metric.name: pIC50
One number for each entry, as −log10 of the molar value.

Query (compound): O=C1C(CSC(=S)N2CCCCC2)=C(CSC(=S)N2CCCCC2)C(=O)c2ccccc21 ; field requested: pIC50
5.54
